Target: recombinant human MAO-B (Homo sapiens, UniProt P27338)
Construct: purchased BD Biosciences (Bedford, MA, USA)
Sequence (P27338 1-520): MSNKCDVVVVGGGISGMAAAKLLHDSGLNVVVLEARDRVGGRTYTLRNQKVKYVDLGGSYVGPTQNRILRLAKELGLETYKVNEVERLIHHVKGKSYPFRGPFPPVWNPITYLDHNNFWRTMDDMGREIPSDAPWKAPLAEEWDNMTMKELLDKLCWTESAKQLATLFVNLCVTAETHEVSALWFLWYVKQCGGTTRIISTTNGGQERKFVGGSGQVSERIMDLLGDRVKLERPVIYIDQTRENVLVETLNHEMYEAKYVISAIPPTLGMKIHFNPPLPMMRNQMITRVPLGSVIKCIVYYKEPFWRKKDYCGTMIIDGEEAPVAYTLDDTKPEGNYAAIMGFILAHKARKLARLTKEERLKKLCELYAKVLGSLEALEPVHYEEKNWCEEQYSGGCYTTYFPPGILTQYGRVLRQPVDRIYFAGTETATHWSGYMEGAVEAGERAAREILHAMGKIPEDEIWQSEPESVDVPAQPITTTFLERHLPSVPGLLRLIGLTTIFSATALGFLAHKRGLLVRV
Experiment: MAO-B inhibition assay (kynuramine oxidative deamination)
Type: biochemical
Details: Selectivity Index = IC50 MAO-A/IC50 MAO-B
readoutType: SI MAO-A/-B

COc1cc(O)c2c(=O)cc(-c3ccc(O)c(OC)c3)oc2c1
42.056

[a] O=C(/C=C/c1ccc(O)cc1)OC[C@H]1O[C@@H](Oc2cc(O)c3c(=O)cc(-c4ccc(O)cc4)oc3c2)[C@H](O)[C@@H](O)[C@@H]1O
[b] C[C@@H]1O[C@@H](O[C@@H]2[C@@H](O)[C@H](O)[C@@H](CO)O[C@H]2c2c(O)cc(O)c3c(=O)cc(-c4ccc(O)cc4)oc23)[C@H](O)[C@H](O)[C@H]1O
Which numeric SI MAO-A/-B is bigger, that of a or that of b ? # answer = label of selected item
b

Recorded values, source paper PMC6412401.
